Data origin: patent US20220041606A1

Attribute: pEC50
Target: human mAChR M1 (Homo sapiens, UniProt P11229)
Construct: host or cells: CHO-K1 cells (ATCC), stably transfected using Lipofectamine2000
Sequence (P11229 whole entry): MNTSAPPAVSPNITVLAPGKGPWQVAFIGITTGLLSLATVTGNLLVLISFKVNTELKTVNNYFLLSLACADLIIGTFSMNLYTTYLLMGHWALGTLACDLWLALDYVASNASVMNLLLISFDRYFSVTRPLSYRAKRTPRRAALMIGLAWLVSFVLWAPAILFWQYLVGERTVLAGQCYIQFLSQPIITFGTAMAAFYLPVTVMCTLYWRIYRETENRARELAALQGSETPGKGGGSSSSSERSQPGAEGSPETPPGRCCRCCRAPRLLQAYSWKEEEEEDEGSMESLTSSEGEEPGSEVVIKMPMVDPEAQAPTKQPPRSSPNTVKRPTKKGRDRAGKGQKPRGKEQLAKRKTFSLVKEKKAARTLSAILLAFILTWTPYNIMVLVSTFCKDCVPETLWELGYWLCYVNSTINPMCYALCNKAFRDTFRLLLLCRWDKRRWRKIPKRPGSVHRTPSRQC
Assay: mAChR M1 cell-based functional assay (calcium mobilization), PAM activity: increase in the EC20 acetylcholine response
Conditions: CHO-K1 cells expressing hM1; potentiation of EC20 acetylcholine response
Remember the convention: pEC50 equals -log10 of concentration in molar.

Cn1cc2c(-c3cc(F)c(Cn4cc(C(=O)N[C@H]5CCCC[C@@H]5O)c5nccn5c4=O)c(F)c3)cccc2n1    6.62
O=C(N[C@H]1CCOC[C@@H]1O)c1cn(Cc2ccc(-n3cccn3)cc2)c(=O)c2cccnc12    5.86
Cn1cc2c(-c3cc(F)c(Cn4cc(C(=O)N[C@H]5CCCC[C@@H]5O)c5nccnc5c4=O)c(F)c3)cccc2n1    6.40
Cn1cc2c(-c3cc(F)c(Cn4cc(C(=O)N[C@H]5CCCCC[C@@H]5O)c5ncccc5c4=O)c(F)c3)cccc2n1    6.68
Cn1ccc(-c2ccc(Cn3cc(C(=O)N[C@H]4CCC[C@@H]4O)c4ncn(C)c4c3=O)c(F)c2)n1    6.22

Requested field: pEC50. Item: Cn1cc2c(-c3cc(F)c(Cn4cc(C(=O)N[C@H]5CCOC[C@@H]5O)c5nccnc5c4=O)c(F)c3)cccc2n1 6.55

Requested field: pEC50. Item: Cn1ccc(-c2ccc(Cn3cc(C(=O)N[C@H]4CCCC[C@@H]4O)c4ncn(C)c4c3=O)c(F)c2)n1 6.60
